test details: NCI Yeast Anticancer Drug Screen. Data for the mlh1 rad18 strain (AID 175)
assay setup: S. cerevisiae mlh1 rad18 strain growth inhibition; at 50.0 µM (retest, dose inferred, filed as 5.0); active compounds read high
About 79,000 compounds went through this panel and 15% of them were active in at least one assay; those are over-represented in the sample as a whole. Active and inactive are the calls of the source. Rule as the data show it: active = growth inhibition above about 70%; inactive = the rest.
measured quantity: growth inhibition

Example results:
| compound | growth inhibition |
| --- | --- |
| Cc1c2ccncc2c(C)c2c1oc1ccccc12 | 90% (active) |
| Nc1ccc2ncc(Nc3ccc(Cl)c(Cl)c3)nc2c1 | 98% (active) |
| Cc1cccc(N2CCN(C(=O)/C(=C/c3ccccc3)NC(=O)c3ccccc3)CC2)c1 | 64% (inactive) |

For every item in the list below, what is its measured growth inhibition?
1. CCOC(=O)C1=C(C)NC(C)=C(C(=O)OCC)C1c1cccc([N+](=O)[O-])c1
2. CCCCCCCCCC/C=C\CC(=O)O
3. c1ccc(N/N=C2\CC(c3ccccc3)Oc3ccccc32)cc1 (stereo not drawn)
4. O=C(Cc1ccccc1)c1ccc(O)cc1
5. O=S(=O)(O)CC[S][Sn]([S]CCS(=O)(=O)O)([c]1ccccc1)[c]1ccccc1

Data returned:
75% (active)
87% (active)
50% (inactive)
99% (active)
99% (active)

====

test details: NCI Yeast Anticancer Drug Screen. Data for the cln2 rad14 strain (AID 165);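 also: 0% = growth equal to vehicle treated cultures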
assay setup: S. cerevisiae cln2 rad14 strain, at 50.0 µM
Protocol: Growth inhibition of yeast strains with defined genetic alterations is measured as a screen for potential anti-cancer activity. Selected strains with alterations in DNA damage repair or cell cycle control were exposed to compounds and growth inhibition was measured relative to vehicle treated controls. The strain used in this assay is cln2 rad14
Compounds without any hit were thinned out: in the full panel of roughly 79,000, 15% have a hit. Activity calls are given as the source filed them. No stated cut-off is given here; in the data, active means growth inhibition above about 70%; inactive means the rest.
Pick one and only one: 1 for active, 0 for inactive

| compound | discrete label |
| --- | --- |
| [N-]=[N+]=NC1CC(n2ccc(=O)[nH]c2=O)OC1COC(c1ccccc1)(c1ccccc1)c1ccccc1 (centres undefined) | 1 |
| Oc1ccc(Cc2nccc3cc(O)c(O)cc23)cc1O | 0 |

Data request: // param item: CC[N+]1(C)CCC(O)(/C=C/c2ccc(Cl)c(Cl)c2)C(C(=O)/C=C/c2ccc(Cl)c(Cl)c2)C1 (centres undefined) ; yields the recorded call
Data returned: 1

Data request: // outcome(item) with item = CCCCCC/C(C)=N/Nc1ccc([N+](=O)[O-])cc1[N+](=O)[O-]
Data returned: 0

====

test details: NCI Yeast Anticancer Drug Screen. Data for the rad50 strain (AID 155);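 also: 0% = growth of vehicle-only cultures of the same strain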
assay setup: S. cerevisiae rad50 strain growth inhibition; at 33.0 µM; active compounds read high
This is part of a sample that, as a whole, favours compounds with a hit. Of some 79,000 tested, about 15% had one in any assay.
measured quantity: growth inhibition (%)
Give bare numbers, in %.

Reference set (5 entries):
| compound | scale unit | growth inhibition |
| --- | --- | --- |
| O=C(Nc1ccn(C2CC(O)C(COC(c3ccccc3)(c3ccccc3)c3ccccc3)O2)c(=O)n1)c1ccccc1 (stereo unspecified) | % | 87 |
| COc1ccc(/C=C2\CCc3ccccc3C2=O)cc1OC | % | 22 |
| CNc1ccc2[nH]c3ccccc3c2c1 | % | 1 |
| O=C1c2ccccc2-c2ccc(NC(=O)C3CCCCC3C(=O)O)cc21 (stereo unspecified) | % | 24 |
| O=c1[nH]c(=O)n(CCCO)cc1F | % | -12 |

Consider now this further compound.
growth inhibition recorded for this compound, C[Si](C)(C)Cc1ccccc1C(=O)O , is 56

====

test details: NCI Yeast Anticancer Drug Screen. Data for the mec2-1 strain (AID 157)
assay setup: S. cerevisiae mec2-1 strain, at 3.7 µM, active compounds read high
Compounds without any hit were thinned out: in the full panel of roughly 79,000, 15% have a hit.
measured quantity: growth inhibition (%)
Numbers only, in %.

Example compounds with recorded growth inhibition:
| compound | scale unit | assay result |
| --- | --- | --- |
| CC(=O)O/N=C/c1c2ccccc2cc2ccccc12 | % | 2 |
| O=CC(=C(I)I)c1ccccc1 | % | 67 |
| CCOC(=O)/C(O)=C(/C=N/C(=S)Nc1c(CC)cccc1CC)C(=O)OCC | % | -5 |
| O=C(N/N=C/c1ccc2c(c1)CCC2)c1ccccc1[N+](=O)[O-] | % | -10 |
| Nc1cccc2cc(Cl)cnc12 | % | 10 |
| CN(C)N1C(=O)SCC(c2ccccc2)(c2ccccc2)C1=O | % | 1 |

I would be grateful if you could provide growth inhibition for each of the following entries.
1. Nc1nc(Nc2ccccc2)nc(Nc2ccccc2)n1
2. [N-]=[N+]=NC1CC(n2ccc(=O)[nH]c2=O)OC1COC(c1ccccc1)(c1ccccc1)c1ccccc1 (stereo not drawn)
3. CC(C)(C)[Si](C)(C)OCC1OC(n2cnc3c(N)ncnc32)C2OC(=S)OC12 (stereo not drawn)
4. S=C1NC2=C(CSC/C2=C\c2ccc(Cl)cc2)C(c2ccc(Cl)cc2)N1 (stereo not drawn)
5. CSc1ccc2c(c1)C(N1CCN(C)CC1)Cc1ccccc1S2 (stereo not drawn)

Data returned:
[1, -1, 2, -1, -83]

Value sought for every listed compound: growth inhibition.
1. Cc1c(N=Nc2ccc(Cl)cc2)c(C)n(C2OC(CO)C(O)C(O)C2O)c(=S)c1C#N (stereo not drawn)
2. O=S(=O)(Oc1c(Cl)cc(Cl)cc1Cl)c1ccccc1
3. COc1ccc2c(Cc3c4ccccc4cc4ccccc34)cncc2c1O
4. CCCCCCCCCC/C=C\CC(=O)O
5. Cc1cnccc1N=Nc1ccc(N(C)C)cc1
6. [Cl][Pt+2][Cl].[NH-]CC1(C[NH-])CCCCC1

Data returned:
[3, -1, 7, 0, 1, -19]

// for each compound below, give its growth inhibition
1. COc1ccc(CCN2C(=O)C=CC2=O)cc1OC
2. Cc1nc2ccc(NCCN(C)C)c3c(=O)c4ccccc4n1c23
3. O=C1c2ccccc2C2CCC1c1ccccc12 (stereo not drawn)
4. CCN(CC)CCSc1c2ccccc2nc2cc(NCC(=O)Nc3ccccc3-c3ccccc3NC(=O)CNc3ccc4c(SCCN(CC)CC)c5ccccc5nc4c3)ccc12
5. CCC(C)/C(C)=N/NC(N)=O (stereo not drawn)

Data returned:
[38, 30, -14, 22, 2]

Answer for every listed entry: what is its growth inhibition? The entries follow.
1. O=C(/C(=C/c1ccccc1)CBr)c1ccccc1
2. N#C/C(=C1C=C/C(=N\O)C(Cl)=C\1)c1ccccc1
3. CCCCCCCCCCCCCCCCCN
4. CCc1nc2ccc(N=Nc3c(O)ccc4ccccc34)cc2[nH]1
5. Cc1cc(NCCCN(C)C)c2ccc3c(ccc4c(NCCCN(C)C)cc(C)nc43)c2n1
6. COc1ccc2cc(CN3CCC(C4CCN(Cc5ccc6cc(OC)ccc6c5)CC4)CC3)ccc2c1
7. CCOC(=O)c1[nH]c2cccc3c2c1CC(Br)C3=O (stereo not drawn)

Data returned:
1. 12
2. 0
3. -28
4. 7
5. 15
6. -40
7. 3

====

What growth inhibition was measured for each of the following?
test details: NCI Yeast Anticancer Drug Screen. Data for the wt2 strain (AID 169);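 also: 0% = growth of vehicle-treated yeast cultures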
assay setup: S. cerevisiae wt2 strain growth inhibition; at 11.0 µM; active compounds read high
The panel holds about 79,000 compounds, 15% with a hit somewhere; the sample as a whole holds those more often. The source made the active and inactive calls. No stated cut-off is given here; in the data, active means growth inhibition above about 70%; inactive means the rest.

I need growth inhibition for every entry listed below, if you could help.
1. CC(=O)CC[N+](C)(C)C
2. CCOc1nc(OCC)nc(-c2cccn2-c2ccccc2)n1
3. CC[N+]1(C)CCC(O)(/C=C/c2ccc(Cl)c(Cl)c2)C(C(=O)/C=C/c2ccc(Cl)c(Cl)c2)C1 (centres undefined)
4. Cc1[nH]nc(C(F)(F)F)c1N=NN(C)C

Data returned:
-25% (inactive)
1% (inactive)
99% (active)
51% (inactive)

====

test details: NCI Yeast Anticancer Drug Screen. Data for the mec2-1 strain (AID 157)
assay setup: S. cerevisiae mec2-1 strain, at 1.2 µM, active compounds read high
About 79,000 compounds went through this panel and 15% of them were active in at least one assay; those are over-represented in the sample as a whole.
measured quantity: growth inhibition (%)
Give bare numbers, in %.

Please review the following examples before continuing.
| compound | growth inhibition (%) |
| --- | --- |
| Cc1ccc2nc(N/N=C/c3ccc(C)s3)cc(C)c2c1 | -23 |
| c1ccc(N/N=C2\CC(c3ccccc3)Oc3ccccc32)cc1 (centres undefined) | 1 |
| CCCCCCCCCC/C=C\CC(=O)O | -3 |

So for CCOC(=O)/C=C1\CCCn2c1ncc(C(=O)OCC)c2=O , the logged growth inhibition turned out to be 3

====

test details: NCI Yeast Anticancer Drug Screen. Data for the mlh1 strain (AID 171);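 also: 0% = growth of vehicle-treated control cultures of the same strain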
assay setup: S. cerevisiae mlh1 strain growth inhibition; at 100.0 µM
This is part of a sample that, as a whole, favours compounds with a hit. Of some 79,000 tested, about 15% had one in any assay. Active and inactive are the calls of the source. Cut-off read from the data, not from the text of the source: active = growth inhibition above about 70%; inactive = the rest.
Pick one and only one: active, inactive

Data request: How was O=[N+]([O-])c1cccc2nc3ccccc3c(NCCC[N+]3([O-])CCOCC3)c12 classified in this test?
Data returned: active

Data request: Assay outcome for COc1cc(C(C)(C)C)cc(OC)c1C(O)(c1c(OC)cc(C(C)(C)C)cc1OC)c1c(OC)cc(C(C)(C)C)cc1OC : what was it?
Data returned: active
